Data credit: patent US20120172293A1

# target-or-test-system: human Y2 receptor (human) (UniProt P49146)
# Sequence (P49146 whole entry): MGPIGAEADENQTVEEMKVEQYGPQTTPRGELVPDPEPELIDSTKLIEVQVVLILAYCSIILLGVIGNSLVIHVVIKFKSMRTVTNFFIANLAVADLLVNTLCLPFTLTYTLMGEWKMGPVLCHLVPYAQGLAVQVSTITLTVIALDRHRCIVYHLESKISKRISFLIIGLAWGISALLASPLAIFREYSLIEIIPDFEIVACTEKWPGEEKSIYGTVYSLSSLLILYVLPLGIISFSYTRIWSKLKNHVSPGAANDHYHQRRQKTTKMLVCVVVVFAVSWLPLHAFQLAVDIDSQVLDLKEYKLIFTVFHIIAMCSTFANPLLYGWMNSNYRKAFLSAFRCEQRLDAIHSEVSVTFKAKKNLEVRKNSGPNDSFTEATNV
# method: RBA: displacement of [125I]-PYY from hY2R/CHO membranes
Non-standard residues stand in square brackets, D forms with d. 4Pal = N[C@@H](Cc1ccncc1)C(=O)O; Cha = N[C@@H](CC1CCCCC1)C(=O)O; Iva = CC[C@](C)(N)C(=O)O; Nva = CCC[C@H](N)C(=O)O; Aib = CC(C)(N)C(=O)O
measured-endpoint: IC50 Ratio (IC50 compound/IC50 PYY(3-36))
When you answer, write just the number.

Ac-S[dP]RH[Cha][Cha]N[Iva][Aib]TRQR[Cha]-NH2 (SMILES CC[C@](C)(NC(=O)[C@H](CC(N)=O)NC(=O)[C@H](CC1CCCCC1)NC(=O)[C@H](CC1CCCCC1)NC(=O)[C@H](Cc1c[nH]cn1)NC(=O)[C@H](CCCNC(=N)N)NC(=O)[C@H]1CCCN1C(=O)[C@H](CO)NC(C)=O)C(=O)NC(C)(C)C(=O)N[C@H](C(=O)N[C@@H](CCCNC(=N)N)C(=O)N[C@@H](CCC(N)=O)C(=O)N[C@@H](CCCNC(=N)N)C(=O)N[C@@H](CC1CCCCC1)C(N)=O)[C@@H](C)O) [Ac-[D-Pro24, Cha27,28,36, Iva30, Aib31]-PYY(23-36)] : 43

Here is the next item to consider.
Respond only with IC50 Ratio (IC50 compound/IC50 PYY(3-36)) recorded for Ac-S[dP][Iva][4Pal][Cha][Nva]NK[Aib]TRQR[Cha]-NH2 (SMILES CCC[C@H](NC(=O)[C@H](CC1CCCCC1)NC(=O)[C@H](Cc1ccncc1)NC(=O)[C@](C)(CC)NC(=O)[C@H]1CCCN1C(=O)[C@H](CO)NC(C)=O)C(=O)N[C@@H](CC(N)=O)C(=O)N[C@@H](CCCCN)C(=O)NC(C)(C)C(=O)N[C@H](C(=O)N[C@@H](CCCNC(=N)N)C(=O)N[C@@H](CCC(N)=O)C(=O)N[C@@H](CCCNC(=N)N)C(=O)N[C@@H](CC1CCCCC1)C(N)=O)[C@@H](C)O) [Ac-[D-Pro24, Iva25, Pya(4)26, Cha27,36, Nva28, Aib31, Lys30]-PYY(23-36)]
1.6
